Each recorded value in this set is attributed to patent US20180186897A1.

target-under-test: erythrocytes infected with P. falciparum field isolate 10936
assay-method-text: flow cytometry, staining of IEs
% parasite recognition values for the binders below.

{"columns": ["binder", "% parasite recognition, %"],
 "data": [
  ["MGD30 (antibody) VH: QVQLQESGPGLVKPSETLSLSCAVTGGSITSSKWWTWVRQGPDKGLEWIGKIYHNGTTNYNPSLKSRVAMSVDKSRNQFSLRLTSVTAADTALYYCATASPFKSHHRTTEKLPRPSISAEPGTVIPLGSRVTFVCRGPVGVQTFRLERETSFTYNDTEDVSQVSPSESEARFRIDSVSEGYAGPYRCVYYKAPKWSEQSDYLDLLVKGEDVTWALTQPQLDPRACPQGDLRMSTDIYCMDVWGKGTTVTVSS VL: AIRLTQSPSSLSASIGDRVTITCRASQDISTFLAWYQQESGKAPRLLIFAASTLQTGVPSRFSGSGSGTDFTLTISGLQSEDFATYYCQQYYCFPPDFGQGTRLDIK", 2.6],
  ["MGD55 (antibody) VH: QVQLQESGPGLVKPSGTLSLTCTVSGGSISAYKWWSWVRQAPGKGLEWIGQVYHNGNTNYNPSLKGRVAMSVDKSKNRFSLRLASVTAADTAVYYCATISPLRPQSDTDDLPRPSISAEPGTVIPLGSHVTFVCRGPIGVQTFRLERESRSLYSDTEDVSQVSPFASEARFRIDSVSEGNAGPYRCIYYKDRKWSDQSDYLELLVKGEDVTWALPQSQLAPRACPQEELNISTDIFSMNVWGKGTTVTVSS VL: AIRMTQSPASLSASIGDRVTITCRTSQDVGNYLDWYQQKPGKAPKLLIHGASTLQTGVPSRFSGSGAGTDFTLNITCLQSGDFAMYYCQQYYSSPPGFGQGTRLEIK", 13.3]
]}
